phosphorylation enrichment reference
# study.target: EPHB2 (UniProt P29323)
# Sequence (P29323 whole entry, looked up): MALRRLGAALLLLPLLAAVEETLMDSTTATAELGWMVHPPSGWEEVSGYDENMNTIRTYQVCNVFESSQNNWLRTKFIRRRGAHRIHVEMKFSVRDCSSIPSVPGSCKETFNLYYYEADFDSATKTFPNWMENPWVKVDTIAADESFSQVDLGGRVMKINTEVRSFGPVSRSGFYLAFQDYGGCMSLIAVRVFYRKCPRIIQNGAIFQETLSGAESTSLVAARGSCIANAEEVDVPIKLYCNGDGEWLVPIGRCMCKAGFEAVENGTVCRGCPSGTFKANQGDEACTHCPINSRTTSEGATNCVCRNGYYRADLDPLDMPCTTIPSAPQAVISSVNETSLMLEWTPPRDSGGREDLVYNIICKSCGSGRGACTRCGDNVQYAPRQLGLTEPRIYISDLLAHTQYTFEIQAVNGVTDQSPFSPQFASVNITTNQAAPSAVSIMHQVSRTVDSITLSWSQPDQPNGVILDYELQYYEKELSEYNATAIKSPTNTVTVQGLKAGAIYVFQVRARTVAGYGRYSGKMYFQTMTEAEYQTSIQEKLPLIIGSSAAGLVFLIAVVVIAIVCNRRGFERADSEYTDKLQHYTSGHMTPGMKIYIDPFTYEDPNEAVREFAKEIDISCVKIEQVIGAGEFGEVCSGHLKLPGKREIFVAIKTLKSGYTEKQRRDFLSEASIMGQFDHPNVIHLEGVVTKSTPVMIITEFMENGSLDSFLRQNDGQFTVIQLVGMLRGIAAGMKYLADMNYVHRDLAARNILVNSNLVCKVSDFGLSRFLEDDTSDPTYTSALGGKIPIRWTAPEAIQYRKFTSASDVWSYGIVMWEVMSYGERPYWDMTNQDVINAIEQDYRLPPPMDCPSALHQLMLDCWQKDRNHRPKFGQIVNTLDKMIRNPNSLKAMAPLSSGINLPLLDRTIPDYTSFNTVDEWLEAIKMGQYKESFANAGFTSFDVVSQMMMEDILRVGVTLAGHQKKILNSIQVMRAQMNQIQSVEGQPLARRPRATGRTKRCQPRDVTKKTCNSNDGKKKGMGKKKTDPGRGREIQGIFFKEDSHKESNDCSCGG
# test.name: phosphorylation enrichment, bacterial display (enrichment ratio); higher = better substrate or ligand; peptides without Tyr show the background;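 also: 11-residue human phosphosite peptides and single-mutation variants displayed on the E. coli surface, counted by deep sequencing, each peptide's frequency after selection divided by its frequency in the unselected input library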;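 also: frequency after pTyr selection over input frequency; kinase dosed for 20-30% of maximal phosphorylation in three min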
API doc: respond with a numeric literal and nothing else, no unit.

Take a look at these entries with their results.
INSERT INTO results (residues, study_target, observed_result) VALUES
  ('KLKRSYPSPDI [USP8_Y717_S718P]', 'EPHB2 (UniProt P29323)', 0.291),
  ('PLLLSYFLIKW [NUP160_Y773_YF]', 'EPHB2 (UniProt P29323)', 0.622),
  ('QYRFIYMAVQH [PTPN11_Y515]', 'EPHB2 (UniProt P29323)', 0.947);

Exercise: # get_value(readout='phosphorylation enrichment', item= PVQAADQKVVA [HBB_Y131_Y131D] )
Solution: 0.718

Exercise: # get_value(readout='phosphorylation enrichment', item= IAINKYEVSLI [MYO7A_Y2136_G2137E] )
Solution: 0.562

Exercise: # get_value(readout='phosphorylation enrichment', item= DEDYLCREELA [POR_Y575_Y575C] )
Solution: 0.725

Exercise: # get_value(readout='phosphorylation enrichment', item= HPFHVYSQPGM [BAG3_Y114_P115S] )
Solution: 0.945

====

# Tested on: c-Abl (mouse)
# test.name: phosphorylation enrichment, bacterial display (enrichment ratio); higher = better substrate or ligand; peptides without Tyr show the background
phosphorylation enrichment reference

Take a look at these entries with their results.
INSERT INTO measurements (residues, observed_result) VALUES
  ('FAKSVYWDNTL [NUP107_Y296_E298D_YF]', 0.656),
  ('PPTFRYERGSR [INPPL1_Y663_YF]', 0.704);

Exercise: # get_value(readout='phosphorylation enrichment', item= NVPILYTASQA [CTNNA1_Y222] )
Solution: 0.576

Exercise: # get_value(readout='phosphorylation enrichment', item= TQPSPYAVYRF [RPGRIP1_Y823] )
Solution: 22.2

Exercise: # get_value(readout='phosphorylation enrichment', item= SRDPFYEMLTA [CYTH1_Y382_A386T] )
Solution: 0.71

Exercise: # get_value(readout='phosphorylation enrichment', item= EVTLTYATGTK [NFKB1_Y485] )
Solution: 0.774

Exercise: # get_value(readout='phosphorylation enrichment', item= EDGRLYAVKRS [PKMYT1_Y136] )
Solution: 0.692

Exercise: # get_value(readout='phosphorylation enrichment', item= CTTIFYNFMCN [TP53_Y234_H233Y_YF] )
Solution: 0.597

Exercise: # get_value(readout='phosphorylation enrichment', item= LKYAIYFEVRE [LAMA2_Y1258_A1261V] )
Solution: 2.14

Exercise: # get_value(readout='phosphorylation enrichment', item= ALVDTYCRHNF [HLA-DRB1_Y107_A103L_YF] )
Solution: 0.683

Exercise: # get_value(readout='phosphorylation enrichment', item= FEGRSYSACTT [MMP9_Y241] )
Solution: 0.856

====

# study.target: MERTK (UniProt Q12866)
# Sequence (Q12866 whole entry, looked up): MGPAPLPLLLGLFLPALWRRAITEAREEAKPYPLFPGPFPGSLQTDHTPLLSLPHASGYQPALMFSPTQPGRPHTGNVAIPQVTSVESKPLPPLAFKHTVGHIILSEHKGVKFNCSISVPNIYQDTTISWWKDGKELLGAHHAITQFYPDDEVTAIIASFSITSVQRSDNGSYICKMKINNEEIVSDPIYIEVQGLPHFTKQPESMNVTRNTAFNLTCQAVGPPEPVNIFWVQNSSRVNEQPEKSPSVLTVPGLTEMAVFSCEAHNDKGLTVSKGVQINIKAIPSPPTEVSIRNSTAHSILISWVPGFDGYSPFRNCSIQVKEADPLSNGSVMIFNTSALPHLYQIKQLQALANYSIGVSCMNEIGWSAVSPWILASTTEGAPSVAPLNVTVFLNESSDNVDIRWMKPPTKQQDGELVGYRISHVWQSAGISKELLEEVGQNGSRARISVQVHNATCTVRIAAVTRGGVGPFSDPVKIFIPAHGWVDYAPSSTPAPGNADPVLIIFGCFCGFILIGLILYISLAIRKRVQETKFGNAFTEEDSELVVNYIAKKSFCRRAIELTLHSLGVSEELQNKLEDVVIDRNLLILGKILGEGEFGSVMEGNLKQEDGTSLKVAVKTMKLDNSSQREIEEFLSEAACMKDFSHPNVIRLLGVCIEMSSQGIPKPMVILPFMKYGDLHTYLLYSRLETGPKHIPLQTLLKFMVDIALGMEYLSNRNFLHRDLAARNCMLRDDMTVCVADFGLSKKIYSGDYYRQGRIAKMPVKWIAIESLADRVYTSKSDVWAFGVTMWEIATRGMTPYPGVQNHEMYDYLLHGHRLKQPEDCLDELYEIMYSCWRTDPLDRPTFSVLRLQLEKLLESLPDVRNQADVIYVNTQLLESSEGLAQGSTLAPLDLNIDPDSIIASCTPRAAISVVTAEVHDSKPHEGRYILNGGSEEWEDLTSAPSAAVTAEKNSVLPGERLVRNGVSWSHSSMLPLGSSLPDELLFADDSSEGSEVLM
# test.name: phosphorylation enrichment, bacterial display (enrichment ratio); higher = better substrate or ligand; peptides without Tyr show the background
Classification scheme (phosphorylation enrichment): 1 (below 0.4), 2 (0.4 to below 0.6), 3 (0.6 or more)

Below, 8 sequences whose answers are already recorded.
INSERT INTO assay_data (residues, classification) VALUES
  ('LYNQDYPIHSV [GATM_Y227]', 3),
  ('NTGDFYDLFGG [PTPN11_Y63_YF]', 3),
  ('SDVDLYQVRIA [PSMD9_Y70_T74I]', 2),
  ('LIHTKCPQLLP [AHCY_Y143_Y143C]', 2),
  ('SETDDYAEIIV [PTK2_Y397_D402V]', 2),
  ('TYVKSYTIHYS [F5_Y2153_M2148T]', 2),
  ('RLKAKYPAATG [GLI3_Y933_A934P]', 3),
  ('LERYIYNREEF [HLA-DPB1_Y59]', 3);

Exercise: Which category fits this record: LVMFIYAIFWM [SCN1A_Y1684_G1688W]
Solution: 2

Exercise: Which category fits this record: LIGTPYWMAPE [PAK5_Y608_V604I]
Solution: 3

Exercise: Which category fits this record: EFGEVYKGMLK [EPHA2_Y628]
Solution: 1

Exercise: Which category fits this record: DVLEFCNSKKT [PAK1_Y131_Y131C]
Solution: 2

Exercise: Which category fits this record: TKFVAYIESQG [KDM4B_Y34_N29T_YF]
Solution: 1

Exercise: Which category fits this record: FAELVYTSFWH [ASS1_Y322_G324S]
Solution: 3

Exercise: Which category fits this record: CHSDDYVHISL [TSC1_Y406]
Solution: 2

Exercise: Which category fits this record: GVRTIYTIDGS [DCLK2_Y124]
Solution: 2

Exercise: Which category fits this record: KHCEDYVFSYN [DSC1_Y846_C848F]
Solution: 2

Exercise: Which category fits this record: IVEELYAIPPD [PEAK1_Y797_S792I]
Solution: 3

Exercise: Which category fits this record: QTLTDYDIRFF [CSNK2A1_Y131_YF]
Solution: 2

Exercise: Which category fits this record: YHLLPYTVRAM [PARS2_Y93]
Solution: 3

Exercise: Which category fits this record: FKDVTYLKEEK [UBE3A_Y127_T129K]
Solution: 1

Exercise: Which category fits this record: NKKHHYRELPV [ERN2_Y860]
Solution: 3

Exercise: Which category fits this record: RNESFYDTFST [EFCAB3_Y372]
Solution: 3

====

# Tested on: c-Src
# test.name: phosphorylation enrichment, bacterial display (enrichment ratio); higher = better substrate or ligand; peptides without Tyr show the background
Please mark Criterion met if the recorded phosphorylation enrichment is equal to or greater than 0.5, and Criterion not met if it falls below.

Below, 2 sequences whose answers are already recorded.
INSERT INTO measurements (residues, classification) VALUES
  ('IPGRFYETGSI [PAX2_Y73_L69P_YF]', 'Criterion met'),
  ('RLLRGYNQSAY [HLA-C_Y137_D138N]', 'Criterion not met');

Exercise: Textbook exercise: given the entry ASKEPYFVHCI [MYO1D_Y585_R588H_YF] , state whether its phosphorylation enrichment is greater than or equal to 0.5.
Solution: Criterion met

Exercise: Textbook exercise: given the entry FEGAIYRKDIG [GART_Y417_V421I] , state whether its phosphorylation enrichment is greater than or equal to 0.5.
Solution: Criterion not met

Exercise: Textbook exercise: given the entry ADPQEYIPLPA [JAKtide_2014] , state whether its phosphorylation enrichment is greater than or equal to 0.5.
Solution: Criterion not met

Exercise: Textbook exercise: given the entry HLDRSYSFSFS [PEAR1_Y890_R885H_YF] , state whether its phosphorylation enrichment is greater than or equal to 0.5.
Solution: Criterion met

Exercise: Textbook exercise: given the entry ADVLDYIKALN [HPRT1_Y81_L78V] , state whether its phosphorylation enrichment is greater than or equal to 0.5.
Solution: Criterion not met

Exercise: Textbook exercise: given the entry GEDEPYAEPFA [APBA1_Y183_S184A_YF] , state whether its phosphorylation enrichment is greater than or equal to 0.5.
Solution: Criterion met

Exercise: Textbook exercise: given the entry VMTVDYSKTVV [SETD2_Y770] , state whether its phosphorylation enrichment is greater than or equal to 0.5.
Solution: Criterion not met

Exercise: Textbook exercise: given the entry NTEGGYCCICA [CRELD1_Y328_R329C] , state whether its phosphorylation enrichment is greater than or equal to 0.5.
Solution: Criterion met

Exercise: Textbook exercise: given the entry SKNSKYNAEST [PSEN1_Y315] , state whether its phosphorylation enrichment is greater than or equal to 0.5.
Solution: Criterion not met

Exercise: Textbook exercise: given the entry HEKKAYSFCGT [RPS6KA3_Y226] , state whether its phosphorylation enrichment is greater than or equal to 0.5.
Solution: Criterion met

====

# Test system: c-Src
# test.name: phosphorylation enrichment, bacterial display (enrichment ratio); higher = better substrate or ligand; peptides without Tyr show the background
Classification scheme (phosphorylation enrichment): lower range = under 0.5, middle range = from 0.5 up to 1, upper range = 1 and over

INSERT INTO assay_data (residues, classification) VALUES
  ('LADKPYTFEDF [FXN_Y118_YF]', 'upper range'),
  ('KQRKEYMHRWQ [IQGAP2_Y710_R714W]', 'middle range'),
  ('SKQGKYLNWDA [ATM_Y54]', 'lower range');

Now look at this entry.
Exercise: Which category fits this record: EEEYEYMNRRR [ERBB3_Y1199_D1194E]
Solution: lower range

====

# Test system: c-Src
# test.name: phosphorylation enrichment, bacterial display (enrichment ratio); higher = better substrate or ligand; peptides without Tyr show the background
measure.name: phosphorylation enrichment

Take a look at these entries with their results.
INSERT INTO measurements (residues, observed_result) VALUES
  ('YGMSSYITRED [FNDC3B_Y180_T179S]', 0.51),
  ('RHFSSYSQMEN [PKP1_Y120_R116H]', 0.414);

Exercise: # get_value(readout='phosphorylation enrichment', item= PQGVRYIFTID [DCX_Y103_YF] )
Solution: 0.587

Exercise: # get_value(readout='phosphorylation enrichment', item= NGRQCYSCRGN [PLAUR_Y217_K220R] )
Solution: 0.294

Exercise: # get_value(readout='phosphorylation enrichment', item= LARDMHDKEYY [MET_Y1230_Y1230H] )
Solution: 0.425

Exercise: # get_value(readout='phosphorylation enrichment', item= LKFAIYFEARE [LAMA2_Y1258_YF] )
Solution: 0.345

Exercise: # get_value(readout='phosphorylation enrichment', item= VDASYYGGRGV [ANTXR2_Y381] )
Solution: 0.999

Exercise: # get_value(readout='phosphorylation enrichment', item= RIRRRYCQVLN [IQCF1_Y144] )
Solution: 0.575
